meta.source: paper PMC5786306

# test_system: 647-RhoA (Homo sapiens)
# Construct: made in house
# Sequence (P61586 whole entry): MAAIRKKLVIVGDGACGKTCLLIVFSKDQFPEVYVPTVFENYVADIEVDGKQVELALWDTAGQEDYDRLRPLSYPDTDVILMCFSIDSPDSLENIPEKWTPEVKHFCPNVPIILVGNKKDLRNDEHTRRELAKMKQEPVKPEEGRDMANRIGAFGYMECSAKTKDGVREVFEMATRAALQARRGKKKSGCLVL
# protocol_notes: Microscale thermophoresis (MST) with 647-RhoA
# Format: binding
# condition_set: KD for binding to 647-RhoA, mean ± SEM, n = 3–5
measure_name: Kd

Asked: Give the reported value of Kd for this record: Cc1c(CCC(=O)O)c(=O)oc2cc3occ(-c4ccc(Oc5ccccc5)cc4)c3cc12
Given back: 19.5 µM

* * *

# test_system: interaction of AKAP-Lbc/DHPH and RhoA (Homo sapiens)
# Construct: His6-AKAP-Lbc/DHPH (aa 1972–2342 of human AKAP-Lbc; NP_006729.4); made in house
# protocol_notes: Homogeneous time-resolved fluorescence (HTRF) assay
# Format: binding
# condition_set: HTRF; result in words
measure_name: inhibitory effect on the AKAP-Lbc/DHPH-RhoA interaction

# compound, test_system, result
measured = [
    ("COc1ccc(-c2coc3cc4oc(=O)c(C)c(C)c4cc23)cc1 [Scaff10]", "interaction of AKAP-Lbc/DHPH and RhoA (Homo sapiens)", "no inhibitory effect"),
    ("Cc1c(C)c2cc3c(-c4ccc(-c5ccccc5)cc4)coc3cc2oc1=O [Scaff10-46]", "interaction of AKAP-Lbc/DHPH and RhoA (Homo sapiens)", "no inhibitory effect"),
    ("COc1ccc2cc(-c3coc4cc5oc(=O)c(C)c(C)c5cc34)ccc2c1 [Scaff10-47]", "interaction of AKAP-Lbc/DHPH and RhoA (Homo sapiens)", "no inhibitory effect"),
]
